LD50 listing for selected compounds.
Experiment: acute toxicity (LD50), single oral administration to mice
Settings: mouse, in vivo
Method: In this animal experiment the compound under investigation is administered orally to mice and 30 minutes later there are administered intraperitoneally 120 mg/kg of pentetrazole, which causes emprosthotonus and tonic stretchings of the fore and/or hind limbs in unprotected animals 1-4 minutes after the injection. 10 experimental animals are used per dosage of test substance. After counting the protected experimental animals the ED50 is determined according to the Probit method. […]
recorded_endpoint: LD50 (mg/kg)

INSERT INTO assay_data (given_smiles, recorded_endpoint, value_unit, relational_operator, reported_value) VALUES
  ('CN(C)C(=O)c1cc(-c2ccccc2)c(=O)n2ncc3ccc(Cl)cc3c12', 'LD50', 'mg/kg', '=', 5000),
  ('COC1CN(C(=O)c2cc(-c3ccccc3)c(=O)n3ncc4ccc(Cl)cc4c23)C1', 'LD50', 'mg/kg', '=', 5000),
  ('COC1CN(C(=O)c2cc(-c3ccccc3)c(=O)n3ncc4ccccc4c23)C1', 'LD50', 'mg/kg', '=', 1500),
  ('COC1CN(C(=O)c2cc(-c3ccccc3)c(=O)n3ncc4ccsc4c23)C1', 'LD50', 'mg/kg', '=', 5000),
  ('CCN(CC)C(=O)c1cc(-c2ccccc2)c(=O)n2ncc3ccc(Cl)cc3c12', 'LD50', 'mg/kg', '>', 4000);

The values you see were collected from patent US5114934A.
